Experiment: active ingredient delivery in PhEur phosphate buffer of pH 6.8 in a USP dissolution tester
Type: physicochemical
Conditions: modulator as core of theophylline pellets coated with EUDRAGIT RS, no inner controlling layer, versus microcrystalline cellulose core (Example 5)
recorded_endpoint: effect of the substance having a modulating effect on active ingredient delivery

CC(=O)[O-].[Na+] [sodium acetate] :: accelerating effect
O=C([O-])CCC(=O)[O-].[Na+].[Na+] [sodium succinate] :: accelerating effect
O=C(O)CC(O)(CC(=O)O)C(=O)O :: accelerating effect
